The reported measurements were obtained from paper PMC8245078.

Below is a list of entries, each paired with its recorded inhibition at 10 µM value.
system: SF-295; experiment: NCI single dose screening (10 µM); assay type: cell-based; conditions: Homo sapiens; SF-295, CNS cancer, single dose 10^−5 M; read-out: GI% (cell growth inhibition percentage)
All answers are understood in %, so give the number only.

- MOL_SMILES: "Cc1c(C(=O)N/N=C2\\C(=O)N(C)c3ccccc32)oc2ccccc12"
  inhibition at 10 µM / %: 11.8

Q: Input Cc1c(C(=O)N/N=C2\C(=O)Nc3ccc(Br)cc32)oc2ccccc12 , output reported inhibition at 10 µM.
A: 20.3

Q: Input COc1ccc2c(c1)/C(=N/NC(=O)c1oc3ccccc3c1C)C(=O)N2 , output reported inhibition at 10 µM.
A: 95
